Tested on: P388 leukemia ip, CD2F1 mice, survival T/C
procedure-text: NCI In Vivo Anticancer Drug Screen. Data for tumor model P388 Leukemia (intraperitoneal) in CD2F1 (CDF1) mice
test-context: endpoint: median survival time; dose: 6.25 mg/kg/injection; schedule: Q01DX009 (ip); vehicle: Klucel (hydroxypropylcellulose) (HPC)
Toxic doses and inconclusive results are not listed. How the source made its calls: active means survival T/C of 150% or more; inactive means T/C below 125% in these data.
Just give me one of these, please: active, inactive

Recorded results for 5 molecules are shown here.
molecule: COc1c(C=O)c2c(c(OC)c1OC)-c1ccc(OC)c(=O)cc1[C@@H](NC(C)=O)CC2
cat: active
--
molecule: COc1c(I)c2c(c(OC)c1OC)-c1ccc(OC)c(=O)cc1C(NC(C)=O)CC2 (centres undefined)
cat: active
--
molecule: CCCCCC1=C/N\C(C#N)=C(C#N)/N=C/C(CCCCC)=C\N\C(C#N)=C(C#N)/N=C\1
cat: inactive
--
molecule: C=CC(=NC(C)(C)C)Nc1ccccc1Cl
cat: inactive
--
molecule: Cc1c(CCl)cc([N+](=O)[O-])cc1CCl
cat: inactive

input: State the result this test recorded for Nc1ccc(Nc2ccncc2)cc1 .
output: inactive

input: State the result this test recorded for O=c1n(-c2ccccc2)c(=O)n2n1C1C3C4C5C1C5C2C43 (centres undefined) .
output: inactive

input: State the result this test recorded for CC(=O)Nc1ccc(C(=O)N/N=C/c2ccccc2O)cc1 .
output: inactive

input: State the result this test recorded for NNc1n[nH]c(=S)n1N .
output: inactive

----------
Test system: P388 leukemia ip, CD2F1 mice, survival T/C
procedure-text: NCI In Vivo Anticancer Drug Screen. Data for tumor model P388 Leukemia (intraperitoneal) in CD2F1 (CDF1) mice
test-context: endpoint: median survival time; dose: 200.0 mg/kg/injection; schedule: Q01DX001 (ip); vehicle: saline with Tween-80; higher = longer survival
Toxic doses and inconclusive results are not listed.
metric: T/C

molecule: CCOc1c(N2CCOCC2)c(=O)c1=O
readout-value: 100 % of control

molecule: CC(=O)OCC1OC(n2ccc3c(=O)[nH]c(=O)[nH]c32)C(OC(C)=O)C(OC(C)=O)C1OC(C)=O (stereo not drawn)
readout-value: 99 % of control

molecule: O=C(O)Cc1cn2cc(Br)cc(Br)c2n1
readout-value: 97 % of control

I would be grateful if you could provide T/C for each of the following entries.
1. O=c1[nH]c(=O)n(C2OC(CO)C(O)C2O)cc1CC(F)(F)C(F)(F)F (stereo not drawn)
2. Nc1ccc(S(=O)(=O)NCCO)cc1[N+](=O)[O-]
3. COc1ccc(/C(C)=N/N=c2/sc3ccccc3n2CC(=O)O)cc1
4. O=C1CSC(c2c(O)ccc3ccccc23)N1CCN1C(=O)CSC1c1c(O)ccc2ccccc12 (stereo not drawn)

output:
1. 100 % of control
2. 100 % of control
3. 101 % of control
4. 92 % of control

----------
Test system: P388 leukemia ip, CD2F1 mice, survival T/C
procedure-text: NCI In Vivo Anticancer Drug Screen. Data for tumor model P388 Leukemia (intraperitoneal) in CD2F1 (CDF1) mice
test-context: endpoint: median survival time; dose: 50.0 mg/kg/injection; schedule: Q04DX003 (ip); vehicle: saline with Tween-80; higher = longer survival
Toxic doses and inconclusive results are not listed.
Field: T/C. Provide a value for each of the molecules that follow.

molecule: Nc1nc(N)c(N=Nc2ccccc2)c(=O)[nH]1
assayed-system: P388 leukemia ip, CD2F1 mice, survival T/C
T/C: 86 % of control

I would be grateful if you could provide T/C for each of the following entries.
1. CC1(C)OCC2OC=CC(=O)C2O1 (stereo not given)
2. c1cc2c(c(NC3=NCCCO3)c1)CCCC2

output:
["108 % of control", "100 % of control"]

----------
Field: T/C. Provide a value for each of the compounds that follow.
System: P388 leukemia ip, CD2F1 mice, survival T/C
procedure-text: NCI In Vivo Anticancer Drug Screen. Data for tumor model P388 Leukemia (intraperitoneal) in CD2F1 (CDF1) mice
test-context: endpoint: median survival time; dose: 100.0 mg/kg/injection; schedule: Q01DX009 (ip); vehicle: saline; higher = longer survival
Inconclusive results and toxic doses are left out.

Solved entries:
compound: CC1=C(Br)C(c2ccccc2)=Nc2ccccc2N1
T/C: 110 % of control
--
compound: N=C(N)SCCCN
T/C: 112 % of control
--
compound: CCC(=O)NC(Cc1ccsc1)C(=O)O (stereo not drawn)
T/C: 90 % of control

I would be grateful if you could provide T/C for each of the following entries.
1. CC1=C(C)CP(=O)(c2ccccc2)C1
2. [O-][n+]1ccc(C2CO2)cc1 (stereo not drawn)
3. N=C(N)Sc1ccccn1
4. CSc1nc(-c2ccccc2)cc(=O)[nH]1

output:
["95 % of control", "101 % of control", "94 % of control", "108 % of control"]

----------
Test system: P388 leukemia ip, CD2F1 mice, survival T/C
procedure-text: NCI In Vivo Anticancer Drug Screen. Data for tumor model P388 Leukemia (intraperitoneal) in CD2F1 (CDF1) mice
test-context: endpoint: median survival time; dose: 100.0 mg/kg/injection; schedule: Q04DX003 (ip); vehicle: saline; higher = longer survival
Experimental: The antitumor activity of compounds was measured in mice bearing transplantable tumors. Survival or tumor size were measured and the results are expressed as the measurement made in the treated group (T) divided by the measurement made in the vehicle treated control group (C). The tumor model used in this assay is P388 Leukemia (intraperitoneal) in CD2F1 (CDF1) mice
Toxic doses and inconclusive results are not listed.
metric: T/C

compound: COSc1cccc(C(F)(F)F)c1
assayed-system: P388 leukemia ip, CD2F1 mice, survival T/C
T/C: 100 % of control

compound: O=C(CCS(=O)(=O)CCC(=O)c1cccs1)c1cccs1
assayed-system: P388 leukemia ip, CD2F1 mice, survival T/C
T/C: 90 % of control

compound: COc1ccc(C2CC(=O)N(c3ncccn3)C(=O)C2)cc1
assayed-system: P388 leukemia ip, CD2F1 mice, survival T/C
T/C: 103 % of control

I would be grateful if you could provide T/C for each of the following entries.
1. CCCC(N(C)C)P(=O)(O)O (stereo unspecified)
2. CCCCC(=O)Nc1ccc(S(=O)(=O)O)c(N=NC2C(=O)N(c3ccccc3)N=C2C)c1 (stereo unspecified)
3. CC(=O)OC(C)C(C)N(C)C (stereo unspecified)

output:
["105 % of control", "110 % of control", "94 % of control"]

----------
Tested on: P388 leukemia ip, CD2F1 mice, survival T/C
procedure-text: NCI In Vivo Anticancer Drug Screen. Data for tumor model P388 Leukemia (intraperitoneal) in CD2F1 (CDF1) mice
test-context: endpoint: median survival time; dose: 12.5 mg/kg/injection; schedule: Q01DX009 (ip); vehicle: water; higher = longer survival
Toxic doses and inconclusive results are not listed.
metric: T/C

Solved entries:
compound: COc1cc2cc3c4cc(OC)c(OC)cc4cc[n+]3c(C)c2cc1OC (tested in a mixture with another compound)
T/C: 154 % of control

compound: Nc1n[n+](-c2ccc(Cl)cc2)no1
T/C: 124 % of control

compound: COc1cccc2c1C(=O)c1c(O)c3c(c(O)c1C2=O)C[C@@](O)(C(=O)COS(=O)(=O)c1ccc(C)cc1)C[C@@H]3OC1CC(N)C(O)C(C)O1 (some centres undefined)
T/C: 89 % of control

Now for another entry.
input: State recorded T/C with P388 leukemia ip, CD2F1 mice, survival T/C, entry COc1cccc(C(=O)c2ccncc2)c1OC , no comment.
output: 100 % of control

----------
Field: T/C. Provide a value for each of the compounds that follow.
Tested on: P388 leukemia ip, CD2F1 mice, survival T/C
procedure-text: NCI In Vivo Anticancer Drug Screen. Data for tumor model P388 Leukemia (intraperitoneal) in CD2F1 (CDF1) mice
test-context: endpoint: median survival time; dose: 3.12 mg/kg/injection; schedule: Q01DX009 (ip); vehicle: saline with Tween-80; higher = longer survival
Inconclusive results and toxic doses are left out.

Solved entries:
compound: COc1cccc2c1[n+]([O-])c1cccc(O)c1[n+]2[O-]
T/C: 109 % of control
//
compound: CC(C)(C)C1=CC2(C(C)(C)C)OC2C(=O)C1=O (centres undefined)
T/C: 105 % of control
//
compound: CCNCc1c(C)[nH]c2ccccc2c1=O
T/C: 100 % of control

Now for another entry.
input: Return T/C (reported value) for this compound: NC(=O)c1ccc(N)nc1
output: 122 % of control

----------
Test system: P388 leukemia ip, CD2F1 mice, survival T/C
procedure-text: NCI In Vivo Anticancer Drug Screen. Data for tumor model P388 Leukemia (intraperitoneal) in CD2F1 (CDF1) mice
test-context: endpoint: median survival time; dose: 100.0 mg/kg/injection; schedule: Q04DX003 (ip); vehicle: Klucel (hydroxypropylcellulose) (HPC); higher = longer survival
Toxic doses and inconclusive results are not listed.
metric: T/C

Solved entries:
line-notation: C=CCSc1nc2ccc(NCn3c(=S)sc4cc([N+](=O)[O-])ccc43)cc2s1
assayed-system: P388 leukemia ip, CD2F1 mice, survival T/C
readout-value: 90 % of control
--
line-notation: O=C1CC2(CCCCC2)CC(=O)N1c1ccc(O)c(CN(Cc2ccccc2)Cc2ccccc2)c1
assayed-system: P388 leukemia ip, CD2F1 mice, survival T/C
readout-value: 90 % of control

Now for another entry.
input: Return T/C (reported value) for this compound: COc1ccc(-c2csc(N)n2)cc1OC
output: 98 % of control
